- PROCEDURE_DETAILS: In vitro cytotoxicity of CLR 1899
- Format: cell-based
- TEST_CONTEXT: human, NHDF (normal dermal fibroblasts); read-out: Minimum % viability
READOUT_NAME: viability

STRUCTURE_STRING	READOUT_NAME	RESULT
COC(=O)[C@H]1[C@@H](O)[C@@]2(O)c3c(OC)cc(OCCCCNC(=O)CNC(=O)CNC(=O)CNC(=O)c4ccc(CCCCCCCCCCCCCCCCCCOP(=O)([O-])OCC[N+](C)(C)C)cc4)cc3O[C@@]2(c2ccc(OC)cc2)[C@@H]1c1ccccc1	viability	41.7%

====

- Test system: A375 (human malignant melanoma)
- PROCEDURE_DETAILS: IC50 of PLE-flavagline conjugates in cell lines
- Assay type: cell-based
- TEST_CONTEXT: A-375, read-out: IC50 A375
pIC50: −log10 of the molar value.
READOUT_NAME: pIC50

> print(dat)
                           structure.string                    tested.target  recorded.number
1  COC(=O)[C@@H]1[C@H](O)[C@]2(O)c3c(OC)cc(OCCCCN)cc3O[C@]2(c2ccc(OC)cc2)[C@H]1c1ccccc1  A375 (human malignant melanoma)             7.82
